METHOD: APR_HepG2_MitoMembPot_72hr: Apredica 72-hour HepG2 Assay for Mitochondrial Membrane Potential (AID 2282917)
SETUP_CONDITIONS: imaging, actives raise or lower the signal
Active and inactive are the calls of the source. How the source made its calls: active means hit-call score of the fitted dose curve at least 0.9, where 1 is the maximum; inactive means score below 0.9.
Respond only with the outcome that fits, drawn from active, inactive

Would you please look over these solved cases?
1) Cc1ccccc1O; inactive
2) O=C(O)C(F)(F)C(F)(F)C(F)(F)C(F)(F)C(F)(F)C(F)(F)C(F)(F)C(F)(F)F; inactive
3) O=C(NC(=O)c1cc(F)c(F)cc1Cl)Nc1cc(F)ccc1N1CCC(C(=O)O)CC1; inactive

Recorded test outcome, item CCC(C)c1cc([N+](=O)[O-])cc([N+](=O)[O-])c1O (stereo unspecified)
active

Recorded test outcome, item `N#Cc1ccc(N(CC(N)=O)CC(F)(F)F)cc1C(F)(F)F`
inactive

Recorded test outcome, item `Cc1ccc(O)c(C)c1`
inactive

Recorded test outcome, item `c1cc2ccc3cccc4ccc(c1)c2c34`
inactive

Recorded test outcome, item `Oc1ccc(C(c2ccc(O)cc2)(C(F)(F)F)C(F)(F)F)cc1`
inactive

Recorded test outcome, item `O=NN(c1ccccc1)c1ccccc1`
active

Recorded test outcome, item Clc1ccc(C(c2ccccc2Cl)C(Cl)(Cl)Cl)cc1 (stereo unspecified)
active

Recorded test outcome, item `O=S(=O)(O)C(F)(F)C(F)(F)C(F)(F)C(F)(F)C(F)(F)C(F)(F)F`
inactive

Recorded test outcome, item `Nc1ccc(-c2ccc(N)cc2)cc1`
inactive

Recorded test outcome, item `CN(C)c1nc(=O)n(C2CCCCC2)c(=O)n1C`
inactive

Recorded test outcome, item `CCNc1nc(NC(C)C)nc(SC)n1`
active

Recorded test outcome, item `CCOCCOC(C)=O`
inactive

Recorded test outcome, item `c1ccc(-c2ccccc2)cc1`
inactive

###

Read-out: Cytochrome P450 4A22 (Homo sapiens)
METHOD: LTEA_HepaRG_CYP4A22: Life Technologies and Expression Analysis (LTEA) Assay for Cytochrome P450 4A22 (CYP4A22) using HepaRG (AID 2283495)
SETUP_CONDITIONS: mRNA level, 48 h; actives raise or lower the signal
The source made the active and inactive calls. The calls were made as follows: active = hit-call score of the fitted dose curve at least 0.9, where 1 is the maximum; inactive = score below 0.9.
Respond only with the outcome that fits, drawn from Y for active, N for inactive

Would you please look over these solved cases?
1) Cc1cc(O)ccc1Cl; N
2) Cc1cc(-c2ccc(N)c(C)c2)ccc1N; N
3) C1CC2OC2CC1C1CO1 (stereo unspecified); N
4) CCOP(=S)(OCC)SCSC(C)(C)C; N
5) ClC1=C(Cl)[C@]2(Cl)[C@@H]3[C@H]4C[C@H]([C@@H]5O[C@H]45)[C@@H]3[C@@]1(Cl)C2(Cl)Cl; Y
6) O=C(NC(=O)c1cc(F)c(F)cc1Cl)Nc1cc(F)ccc1N1CCC(C(=O)O)CC1; Y
7) Cc1ccccc1O; N
8) ClC(Cl)=C(c1ccc(Cl)cc1)c1ccc(Cl)cc1; N
9) O=S(=O)(O)C(F)(F)C(F)(F)C(F)(F)C(F)(F)F; N
10) O=C(NC(=O)c1c(F)cccc1F)Nc1cc(Cl)c(OC(F)(F)C(F)F)c(Cl)c1; N

Now look at this entry.
Recorded test outcome, item `CCSC(=O)N(CC)C1CCCCC1`
N

###

METHOD: ACEA_AR_agonist_AUC_viability: ACEA Biosciences xCELLigence Real-Time Cell Analysis on Androgen Receptor Agonism for Viability (AID 2283775)
Inconclusive results are not listed. Calls of active or inactive are those of the source. How the source made its calls: active means hit-call score of the fitted dose curve at least 0.9, where 1 is the maximum; inconclusive means response in the unintended direction; inactive means score below 0.9.
Respond only with the outcome that fits, drawn from yes for active, no for inactive

Would you please look over these solved cases?
1) Cc1cccc([N+](=O)[O-])c1; no
2) C1CC2OC2CC1C1CO1 (configuration not stated); no
3) CC1=C2C[C@H]3[C@@H](CC=C4C[C@@H](O)CC[C@@]43C)[C@@H]2CC[C@]12O[C@@H]1C[C@H](C)CN[C@H]1[C@H]2C; no

Now look at this entry.
Recorded test outcome, item `Cc1cc2c3c(c1)C(c1ccccc1)=N[C@@H](NC(=O)c1ccncc1)C(=O)N3CC2`
yes

###

METHOD: CCTE_Harrill_HTTr_Viability_MCF7: CCTE's 6-hour Cell Viability Assessment for the High-Throughput Transcriptomics (HTTr) Platform, in MCF-7 cells cultured in DMEM + 10% fetal bovine serum, Harrill Lab (AID 2284010)
Method: This is a cell-based assay that evaluates cell viability using high content imaging to evaluate membrane integrity using propidium iodide dye exclusion in a 384 well format.One of seven assay components measured from the CCTE_Harrill_HTTr_Viability assay. […] Measurements are taken at 6 hours after chemical dosing in 384-well format.The assay component endpoint CCTE_Harrill_HTTr_Viability_MCF7 was analyzed with bidirectional fitting relation to DMSO as the negative control and baseline of activity. […]
Active and inactive are the calls of the source. The calls were made as follows: active = hit-call score of the fitted dose curve at least 0.9, where 1 is the maximum; inactive = score below 0.9.
EXPERIMENTAL_READOUT: outcome

1. Cc1cccc(C)c1N; inactive
2. Oc1ccc(C(c2ccc(O)cc2)(C(F)(F)F)C(F)(F)F)cc1; inactive
3. ClC(Cl)=C(c1ccc(Cl)cc1)c1ccc(Cl)cc1; inactive
4. CC(C)(c1ccccc1)c1ccc(O)cc1; inactive

###

Read-out: C-C motif chemokine 2 (Homo sapiens)
METHOD: BSK_KF3CT_MCP1: BioMAP Diversity Plus: KF3CT Assay for Monocyte Chemoattractant Protein 1 (MCP1/CCL2) Biomarker Activity (AID 2283073)
SETUP_CONDITIONS: primary human keratinocytes with fibroblasts; actives raise or lower the signal
Activity calls are given as the source filed them. Rule for the calls: active = hit-call score of the fitted dose curve at least 0.9, where 1 is the maximum; inactive = score below 0.9.
EXPERIMENTAL_READOUT: outcome

1. CCNc1nc(NC(C)C)nc(SC)n1; inactive
2. Cc1cccc(C)c1N; inactive
3. CCOCCOC(C)=O; inactive
4. C=CC(N)=O; inactive
5. Cc1ccccc1O; inactive

// `CCCN(CCC)N=O` : outcome value = inactive

// `CCCCCCOC(=O)c1ccccc1C(=O)OCCCCCC` : outcome value = inactive

// `O=C(NC(=O)c1c(F)cccc1F)Nc1cc(Cl)c(OC(F)(F)C(F)F)c(Cl)c1` : outcome value = inactive

// C1CC2OC2CC1C1CO1 (centres undefined) : outcome value = inactive

###

Read-out: Matrix Metallopeptidase 1 (MMP1), MMP1 (gene 4312)
METHOD: BSK_BE3C_MMP1: BioMAP Diversity Plus: BE3C Assay for Matrix Metallopeptidase 1 (MMP1) Biomarker Activity (AID 2283024)
SETUP_CONDITIONS: primary human bronchial epithelial cells; actives raise or lower the signal
Active and inactive are the calls of the source. Rule for the calls: active = hit-call score of the fitted dose curve at least 0.9, where 1 is the maximum; inactive = score below 0.9.
Respond only with the outcome that fits, drawn from true = active, false = inactive

Would you please look over these solved cases?
1) CO/C=C(/C(=O)OC)c1ccccc1COc1cccc(C(F)(F)F)n1; false
2) ClC(Cl)=C(c1ccc(Cl)cc1)c1ccc(Cl)cc1; true
3) ClC1=C(Cl)[C@]2(Cl)[C@@H]3[C@@H]4C[C@@H]([C@H]5O[C@@H]45)[C@@H]3[C@@]1(Cl)C2(Cl)Cl; false
4) CCC(=O)O[C@H]1CC[C@H]2[C@@H]3CCC4=CC(=O)CC[C@]4(C)[C@H]3CC[C@]12C; false
5) Cc1ccccc1[N+](=O)[O-]; false
6) Clc1ccc(C(Cl)(Cl)Cl)cc1; false
7) Cc1cccc([N+](=O)[O-])c1; false
8) O=C(N[C@H]1CN2CCC1CC2)c1cc2ccoc2cn1; false
9) CCC(C)c1cc([N+](=O)[O-])cc([N+](=O)[O-])c1O (centres undefined); false
10) Nc1ccc(-c2ccc(N)cc2)cc1; false

Recorded test outcome, item `Sc1ccccc1`
false

Recorded test outcome, item `CCSC(=O)N(CC)C1CCCCC1`
false

Recorded test outcome, item `ClC1=C(Cl)[C@]2(Cl)[C@@H]3[C@@H](Cl)[C@H]4O[C@H]4[C@@H]3C1(Cl)C2(Cl)Cl`
false

Recorded test outcome, item `O=S(=O)(O)C(F)(F)C(F)(F)C(F)(F)C(F)(F)F`
false

Recorded test outcome, item `Cc1cc2c3c(c1)C(c1ccccc1)=N[C@@H](NC(=O)c1ccncc1)C(=O)N3CC2`
false

Recorded test outcome, item `C[C@]12CCC(=O)C=C1CC[C@@H]1[C@@H]2CC[C@@]2(C)[C@H]1CC[C@]2(C)O`
true

Recorded test outcome, item `Clc1ccc(Cl)cc1`
false

###

Read-out: ABC Transporter (ABCB11), ABCB11 (gene 8647)
METHOD: LTEA_HepaRG_ABCB11: Life Technologies and Expression Analysis (LTEA) Assay for ABC Transporter (ABCB11) using HepaRG (AID 2283463)
SETUP_CONDITIONS: mRNA level, 48 h; actives raise or lower the signal
Activity calls are given as the source filed them. The calls were made as follows: active = hit-call score of the fitted dose curve at least 0.9, where 1 is the maximum; inactive = score below 0.9.
Respond only with the outcome that fits, drawn from active, inactive

Would you please look over these solved cases?
1) NS(=O)(=O)C(F)(F)C(F)(F)C(F)(F)C(F)(F)C(F)(F)C(F)(F)C(F)(F)C(F)(F)F; active
2) C=CC(N)=O; inactive
3) CCOCCOC(C)=O; inactive

Recorded test outcome, item `CCCCCCCCOC(=O)c1ccccc1C(=O)OCCCCCCCC`
inactive

Recorded test outcome, item `CCNc1nc(NC(C)C)nc(SC)n1`
active

Recorded test outcome, item `CCC(=O)O[C@H]1CC[C@H]2[C@@H]3CCC4=CC(=O)CC[C@]4(C)[C@H]3CC[C@]12C`
active

Recorded test outcome, item `CCOP(=S)(OCC)SCSC(C)(C)C`
active

Recorded test outcome, item `CCC(C)(c1ccc(O)cc1)c1ccc(O)cc1`
active

Recorded test outcome, item `ClC1=C(Cl)[C@]2(Cl)[C@@H]3[C@@H]4C[C@@H]([C@H]5O[C@@H]45)[C@@H]3[C@@]1(Cl)C2(Cl)Cl`
inactive

Recorded test outcome, item `CCCCCCCCCc1ccc(O)cc1`
inactive

Recorded test outcome, item `COS(=O)(=O)OC`
inactive

Recorded test outcome, item `c1cc2ccc3cccc4ccc(c1)c2c34`
inactive

Numbers sourced from PubChem BioAssay (EPA / NIEHS).
